Values compiled from ChEMBL document CHEMBL1134740.

Assay: Therapeutic Index (IC50/EC50) of the compound
Reported Property: selectivity ratio
// no unit string in output, number only

Here are 3 molecules together with their reported answers.
C=C(C)[C@@H]1CC[C@]2(C(=O)O)CC[C@]3(C)[C@H](CC[C@@H]4[C@@]5(C)CC[C@H](OC(=O)COCC(=O)O)C(C)(C)[C@@H]5CC[C@]43C)[C@@H]12 = 1170
C=C(C)[C@@H]1CC[C@]2(COC(=O)CC(C)(C)C(=O)O)CC[C@]3(C)[C@H](CC[C@@H]4[C@@]5(C)CC[C@H](OC(=O)C(C)(C)CC(=O)O)C(C)(C)[C@@H]5CC[C@]43C)[C@@H]12 = 96.5
C=C(C)[C@@H]1CC[C@]2(COC(=O)CC(C)(C)CC(=O)O)CC[C@]3(C)[C@H](CC[C@@H]4[C@@]5(C)CC[C@H](OC(=O)CC(C)(C)CC(=O)O)C(C)(C)[C@@H]5CC[C@]43C)[C@@H]12 = 21500

Tell me selectivity ratio reported for `C=C(C)[C@@H]1CC[C@]2(COC(=O)CC(C)(C)C(=O)O)CC[C@]3(C)[C@H](CC[C@@H]4[C@@]5(C)CC[C@H](OC(=O)CC(C)(C)C(=O)O)C(C)(C)[C@@H]5CC[C@]43C)[C@@H]12`
1680

Tell me selectivity ratio reported for `C=C(C)[C@@H]1CC[C@]2(COC(=O)C(C)(C)CC(=O)O)CC[C@]3(C)[C@H](CC[C@@H]4[C@@]5(C)CC[C@H](O)C(C)(C)[C@@H]5CC[C@]43C)[C@@H]12`
159

Tell me selectivity ratio reported for `C=C(C)[C@@H]1CC[C@]2(COC(=O)C(C)(C)CC(=O)O)CC[C@]3(C)[C@H](CC[C@@H]4[C@@]5(C)CC[C@H](OC(=O)CC(C)(C)C(=O)O)C(C)(C)[C@@H]5CC[C@]43C)[C@@H]12`
42400
